For each entry below, report its IC50 value.
- Tested on: Plasma
- ASSAY_INFO: Antioxidant activity assessed as inhibition of LDL oxidation in human plasma
- Format: functional, cell-free
Answers are plain numbers, in nM.

Some entries whose results are on file:
                                   molecule  value_observed
0  CC(C)(Sc1cc(C(C)(C)C)c(O)c(C(C)(C)C)c1)Sc1cc(C(C)(C)C)c(O)c(C(C)(C)C)c1 [PROBUCOL]            1300
1  C/C=C/c1ccc(O[C@@H](C)[C@@H](O)c2ccc(O)c(OC)c2)c(OC)c1 [MACHILIN D]            2900

Shift focus to the following entry.
In: For the record C/C=C/c1ccc(O[C@@H](C)[C@@H](O)c2ccc(OC)c(OC)c2)c(OC)c1 [VIROLIN] , what value of IC50 is listed for Plasma?
Out: 4300
